Each entry below lists one item and its recorded IC50 value.
Test: Inhibition of recombinant glucosylceramidase 1 using 4-methylumbelliferyl-B-glucoside as substrate by fluorimetric analysis
Respond numerically; units are µM and should not be typed.

Would you mind telling me what IC50 value was observed for OC[C@@H]1[C@@H](O)CCCN1CCCCCOCC12CC3CC(CC(C3)C1)C2 ?
175

Same question, OC[C@H]1[C@H](O)CCCN1CCCCCOCC12CC3CC(CC(C3)C1)C2 this time
1000

Same question, OC[C@H]1NCC[C@H](O)[C@@H]1O this time
700

Same question, OC[C@H]1[C@@H](O)[C@@H](O)CCN1CCCCCOCC12CC3CC(CC(C3)C1)C2 this time
200

Same question, CCCCN1CCC[C@@H](O)[C@@H]1CO this time
100

Same question, OC[C@@H]1[C@H](O)CCCN1CCCCCOCC12CC3CC(CC(C3)C1)C2 this time
350

Same question, OC[C@H]1[C@H](O)[C@@H](O)CCN1CCCCCOCC12CC3CC(CC(C3)C1)C2 this time
200

Same question, OC[C@H]1[C@@H](O)C=CCN1CCCCCOCC12CC3CC(CC(C3)C1)C2 this time
100

Same question, OC[C@@H]1[C@@H](O)[C@@H](O)CCN1CCCCCOCC12CC3CC(CC(C3)C1)C2 this time
20

Same question, OC[C@@H]1[C@@H](O)[C@H](O)CCN1CCCCCOCC12CC3CC(CC(C3)C1)C2 this time
10

Taken from ChEMBL document CHEMBL2010723.
